Assay system: STAT3 Cys468A (Homo sapiens, UniProt P40763, C468A)
Construct: a truncated form of STAT3 (136-705) was constructed and chromatographically purified
Sequence (P40763 136-705 C468A): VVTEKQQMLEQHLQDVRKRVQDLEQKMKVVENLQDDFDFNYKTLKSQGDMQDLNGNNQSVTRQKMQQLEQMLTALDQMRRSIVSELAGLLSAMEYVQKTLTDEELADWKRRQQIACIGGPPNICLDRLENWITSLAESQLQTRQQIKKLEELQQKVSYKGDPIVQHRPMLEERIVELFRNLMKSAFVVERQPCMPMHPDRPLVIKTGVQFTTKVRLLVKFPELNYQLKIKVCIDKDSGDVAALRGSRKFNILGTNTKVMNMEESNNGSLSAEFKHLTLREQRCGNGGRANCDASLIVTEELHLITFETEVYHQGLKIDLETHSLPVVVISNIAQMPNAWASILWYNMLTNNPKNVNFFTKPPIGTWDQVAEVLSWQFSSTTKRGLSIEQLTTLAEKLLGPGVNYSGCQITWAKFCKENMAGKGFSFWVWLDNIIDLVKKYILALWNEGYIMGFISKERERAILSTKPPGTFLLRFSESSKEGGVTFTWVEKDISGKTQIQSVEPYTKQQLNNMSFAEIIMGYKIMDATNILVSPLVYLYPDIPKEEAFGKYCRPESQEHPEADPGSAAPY
Protocol description: AlphaScreen-based assay, STAT3 single-cysteine mutant Cys468A
Stated conditions: mutated Cys468A
Quantity measured: IC50

QUERY: Return IC50 for the following molecule: Cc1cc2c(cc1C)NS(=O)(=O)N2 [Compound 1]
RESULT: > 30 µM

###

Assay system: STAT3 Cys550A (Homo sapiens, UniProt P40763, C550A)
Construct: a truncated form of STAT3 (136-705) was constructed and chromatographically purified
Protocol description: AlphaScreen-based assay, STAT3 single-cysteine mutant Cys550A
Stated conditions: mutated Cys550A
Quantity measured: IC50

QUERY: Return IC50 for the following molecule: `Cc1cc2c(cc1C)NS(=O)(=O)N2`
RESULT: > 30 µM

Numbers sourced from paper PMC7435819.
